Please respond with reported RP-LC retention time for every item in the list.
test details: gradient 5% acetonitrile 3 min, to 50% in 2 min, to 85% in 15 min, held 3 min, 100 µL/min
condition context: column: Zorbax Extend-C18 2.1 x 50 mm; eluents: water / acetonitrile, 0.1% formic acid

# get_value(readout='RP-LC retention time', item= Cc1c(C(=O)NCC(C)C)cnn1-c1cc(-c2nc(C3CC3)no2)ccn1 ) 969 s

# get_value(readout='RP-LC retention time', item= Cc1noc(-c2ccnc(-n3cnc(C(=O)NC(C)c4ccccc4)c3)c2)n1 (stereo not given) ) 867 s

# get_value(readout='RP-LC retention time', item= CC(C)(C)NC(=O)c1ccc2nc(-c3ccccc3)cn2c1 ) 783 s

# get_value(readout='RP-LC retention time', item= CC(C)CCNS(=O)(=O)c1ccc(-c2nc(C(C)C)cs2)s1 ) 1260 s

# get_value(readout='RP-LC retention time', item= Cc1ccc2c(c1Br)C(O)(CC(=O)c1ccc(F)cc1)C(=O)N2 (stereo not given) ) 802 s

Reference for the values: the METLIN SMRT retention time set (Domingo-Almenara et al. 2019)
